recorded_endpoint: melting point

// below: answered compounds
compound	melting point
O=C1Nc2ccc(F)cc2C1CCCCN1CCN(c2cc(Cl)cc3c2OCCO3)CC1 (stereo not drawn)	146 to 148 °C
CC(C)(C)C1=NN(c2ccc(C(=O)O)cc2)C(c2ccc(Cl)cc2)C1 (stereo not drawn)	208 °C
CCCCc1nc2sccc2n1Cc1ccc(-c2ccccc2C(=O)O)cc1	203 °C
OCCc1nccn1CCCc1ccc(OCc2coc(/C=C/c3ccc(F)cc3F)n2)cc1	94 to 96 °C
CCCc1[nH]c2cc(C(=O)O)ccc2c1C(=O)C1CCC1	244 to 245 °C

In: Given the entry NC(=O)c1ccc2c(c1)S(=O)(=O)N=CN2C1CC1 , report its measured melting point.
Out: 278 to 281 °C

In: Suppose we examine the compound CCc1nc2c(cnn2CC)c(NC2CCOCC2)c1CNC(=O)c1cccc(C(=O)NCc2ccc(C)c(-c3cccc(CN4CC(C)NC(C)C4)c3)c2)c1 (stereo not drawn) ; what melting point value has been reported?
Out: 109 to 112 °C

In: Data request, read-out melting point, for Cc1cc(-c2ncn3c(C(F)(F)F)cc(-c4ccc(F)c(Cl)c4)nc23)ccn1
Out: 255 °C

In: Reported melting point for CCN(CC)CCn1c(Cl)c(C(=O)NC)c2ccccc21 : what is it?
Out: 103 to 104 °C

In: Could you tell me which melting point is on file for CC(=O)C(C#N)c1cccc(Cl)c1 (stereo not drawn) ?
Out: 92 to 97 °C

In: # lookup: melting point of CC(C)(C)C1=CC(=S)N=N1
Out: 147 to 148 °C

In: So what's the measured melting point for this one? Cc1cc(F)ccc1NC(=O)OC(C)(C)C
Out: 93 to 95 °C

In: Requested field: melting point. Item: Cc1ccc(C(=O)Cn2c(=O)sc3ccccc32)cc1
Out: 168 to 170 °C
